Target: mu-type opioid receptors (Rattus norvegicus, UniProt P33535)
Construct: Whole brains with cerebellum removed were homogenized in 100 volumes of Tris-HCl buffer; from tissue; host or cells: rat brain (without cerebellum), washed homogenate
Sequence (P33535 whole entry): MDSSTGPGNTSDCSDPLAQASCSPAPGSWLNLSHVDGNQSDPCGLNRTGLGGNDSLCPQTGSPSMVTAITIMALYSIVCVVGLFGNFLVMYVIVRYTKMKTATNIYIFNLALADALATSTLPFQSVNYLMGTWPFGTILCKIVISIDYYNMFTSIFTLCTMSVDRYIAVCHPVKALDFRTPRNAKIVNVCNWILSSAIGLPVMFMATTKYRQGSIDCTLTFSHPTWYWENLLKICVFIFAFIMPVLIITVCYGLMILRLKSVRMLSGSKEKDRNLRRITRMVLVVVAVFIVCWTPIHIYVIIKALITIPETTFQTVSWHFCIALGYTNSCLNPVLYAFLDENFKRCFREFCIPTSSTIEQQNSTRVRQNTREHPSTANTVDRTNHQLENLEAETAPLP
Assay: displacement of [3H]CTOP in rat brain homogenate
Assay type: binding
Details: 25° C., read-out: IC50 (nM) ± S.E.E. [3H] CTOP
Description: The binding potencies of each compound for mu and delta receptors in rat brain extracts was determined by competition assays against radiolabelled compounds known to bind opioid receptors. […] The ability of a tested compound to displace tritiated ligands from their respective receptor molecules is a measure of the compound's binding potency for the receptor of the displaced ligand. […] Filter-bound radioactivity was quantitated by liquid scintillation spectrophotometry with an efficiency of 46%. […]
Bridge positions count the residues as written; N and C are the ends. Square brackets hold non-standard residues; d marks the D form. Peptide text beside a SMILES is read from it. Phe(4-Br) = N[C@@H](Cc1ccc(Br)cc1)C(=O)O; Phe(4-Cl) = N[C@@H](Cc1ccc(Cl)cc1)C(=O)O; Phe(4-F) = N[C@@H](Cc1ccc(F)cc1)C(=O)O; dPen = CC(C)(S)[C@@H](N)C(=O)O; Ac5c = NC1(C(=O)O)CCCC1; Abu = CC[C@H](N)C(=O)O
value_kind: IC50 (nM)
Just the number please, in nM, no unit attached.

-- ask Please give measured IC50 of the following entry: CC[C@@H]1NC(=O)[C@H](NC(=O)[C@@H](N)Cc2ccc(O)cc2)C(C)(C)SSC(C)(C)[C@H](C(=O)O)NC(=O)[C@H](Cc2ccccc2)NC1=O [[L--Abu^3]DPDPE] (H-Y[dPen][Abu]F[dPen]-OH; disulfide 2-5)
-- reply 12000

-- ask Please give measured IC50 of the following entry: C[C@@H]1NC(=O)[C@H](NC(=O)[C@@H](N)Cc2ccc(O)cc2)C(C)(C)SSC(C)(C)[C@H](C(=O)O)NC(=O)[C@H](Cc2ccc(Br)cc2)NC1=O [[p-Br--Phe^4 ]DPADPE] (H-Y[dPen]A[Phe(4-Br)][dPen]-OH; disulfide 2-5)
-- reply 2710

-- ask Please give measured IC50 of the following entry: C[C@@H]1NC(=O)[C@H](NC(=O)[C@@H](N)Cc2ccc(O)cc2)C(C)(C)SSC(C)(C)[C@H](C(=O)O)NC(=O)[C@H](Cc2ccc(Cl)cc2)NC1=O [[p-Cl--Phe^4 ]DPADPE] (H-Y[dPen]A[Phe(4-Cl)][dPen]-OH; disulfide 2-5)
-- reply 1120

-- ask Please give measured IC50 of the following entry: C[C@@H]1NC(=O)[C@H](NC(=O)[C@@H](N)Cc2ccc(O)cc2)C(C)(C)SSC(C)(C)[C@H](C(=O)O)NC(=O)[C@H](Cc2ccc(F)cc2)NC1=O [[p-F--Phe^4 ]DPADPE] (H-Y[dPen]A[Phe(4-F)][dPen]-OH; disulfide 2-5)
-- reply 1460

-- ask Please give measured IC50 of the following entry: CC1(C)SSC(C)(C)[C@@H](NC(=O)[C@@H](N)Cc2ccc(O)cc2)C(=O)NC2(CCCC2)C(=O)N[C@@H](Cc2ccccc2)C(=O)N[C@H]1C(=O)O [[AC5 C^3]DPDPE] (H-Y[dPen][Ac5c]F[dPen]-OH; disulfide 2-5)
-- reply 1760
